tested on: Escherichia coli TOP10; test: shrunken log2 fold change of peptide-encoding DNA abundance (4.5 h post-induction vs induction); higher = less antimicrobial activity (less host growth inhibition); settings: time post-induction: 4.5 h; library: site-saturation at positions 5, 18, 19, 20;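 also: peptides expressed intracellularly from a pBAD plasmid library in pooled LB shake-flask culture, induced with 0.3% L-arabinose, DNA abundance read by NGS, three biological replicates, DESeq2 with apeglm shrinkage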
Param threshold (-0.06) applies to shrunken log2 fold change; output criterion met when value >= threshold, criterion not met when value < threshold.

Answered cases to consult:
biopolymer_sequence=RRIRYRPPRLPRPRPRPWRPPRP tested_system="Escherichia coli TOP10" classification="criterion met"
biopolymer_sequence=RRIRFRPPRLPRPRPRPSGTPRP tested_system="Escherichia coli TOP10" classification="criterion not met"
biopolymer_sequence=RRIRTRPPRLPRPRPRPWIEPRP tested_system="Escherichia coli TOP10" classification="criterion met"
biopolymer_sequence=RRIRPRPPRLPRPRPRPPPKPRP tested_system="Escherichia coli TOP10" classification="criterion met"
biopolymer_sequence=RRIRNRPPRLPRPRPRPVTMPRP tested_system="Escherichia coli TOP10" classification="criterion not met"

Has RRIRYRPPRLPRPRPRPPAAPRP a recorded shrunken log2 fold change greater than or equal to -0.06?
criterion met

Given the entry RRIRYRPPRLPRPRPRPTQQPRP , answer whether its shrunken log2 fold change meets or surpasses -0.06.
criterion met

For this sequence, is measured shrunken log2 fold change -0.06 or higher? RRIRVRPPRLPRPRPRPCYSPRP
criterion met

// inclusive: shrunken log2 fold change at least -0.06? input: RRIRSRPPRLPRPRPRPNTRPRP
criterion not met

Form field: shrunken log2 fold change at least -0.06? Entry: RRIRQRPPRLPRPRPRPQCLPRP
criterion not met

Confirm if shrunken log2 fold change reported for the sequence RRIRHRPPRLPRPRPRPIQQPRP is -0.06 or above.
criterion not met

Does RRIRWRPPRLPRPRPRPHYLPRP have a reported shrunken log2 fold change of at least -0.06?
criterion not met

Dear colleague, could you confirm whether RRIRGRPPRLPRPRPRPVCLPRP has shrunken log2 fold change at or above -0.06?
criterion met

Please check the record RRIRFRPPRLPRPRPRPNAPPRP and state if its shrunken log2 fold change is at or above -0.06.
criterion met

Reported shrunken log2 fold change reaches at least -0.06 for RRIRARPPRLPRPRPRPGAYPRP ?
criterion met
